target: T1, VEGFR-2-Fc (UniProt P35968 20-322); assay: receptor-Fc IP
T1 construct: domain: first 3 Ig domains; conditioned supernatant of 293T cells; also called VEGFR-2-Fc fusion protein; not shown: Fc fragment of the pIg vector
T1 sequence (P35968 20-322): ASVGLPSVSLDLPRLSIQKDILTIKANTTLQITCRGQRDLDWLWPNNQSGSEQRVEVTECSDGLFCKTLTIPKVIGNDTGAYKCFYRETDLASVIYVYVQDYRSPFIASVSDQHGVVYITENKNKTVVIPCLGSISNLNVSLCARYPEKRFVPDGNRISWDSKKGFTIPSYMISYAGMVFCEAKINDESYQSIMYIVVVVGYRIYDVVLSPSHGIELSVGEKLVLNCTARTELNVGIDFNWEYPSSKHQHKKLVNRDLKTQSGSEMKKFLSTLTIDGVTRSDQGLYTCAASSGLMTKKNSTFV

{"binder": "51-4 (ligand) AHYNTEILKSIDNEWRKTQCMPIETLVDIFQEYPDEIEYIFKPSCVPLMRCGGCCNSEGLQCMNTSTSYLSKTLFEIKPHQGQHIGEMSFLQHNKCECRPKKD", "binding result": "no binding"}
{"binder": "62-9 (ligand) GQNHHEVVKFMDVYQRSYCHPREVCIDVGKEFGVATNTFFKPPCVSVYRCGGCCNDEGLECVPTEESNITMQIMRITVPLSQGPKPVTISFLQHNKCECRPKKD", "binding result": "no binding"}
{"binder": "62-13 (ligand) GQNHHEVVKFMDVYQRSYCHPREVCIDVGKEFGVATNTFFKPPCVSVYRCGGCCNDEGLECVPTEESNITMQIMRITVPLSQGPKPVTISFANHTSCRCMSKLD", "binding result": "binds"}
{"binder": "33-6 (ligand) GQNHHEVVKSIDNEWRKTQCMPIETLVDIFQEYPDEIEYIFKPPCVSVYRCGGCCNDEGLECMNTSTSYLSKTLFEIKPHQGQHIGEMSFANHTSCRCMSKLD", "binding result": "no binding"}
{"binder": "44-2 (ligand) AHYNTEILKFMDVYQRSYCHPREVCIDVGKEFGVATNTFFKPSCVPLMRCGGCCNDEGLECMNTSTSYLSKTLFEIKPHQGQHIGEMSFLQHNKCECRPKKD", "binding result": "no binding"}
{"binder": "53-1 (ligand) AHYNTEILKSIDNEWRKTQCMPIETLVDIFQEYPDEIEYIFKPPCVSVYRCGGCCNDEGLECVPTEESNITMQIMRIKPHQGQHIGEMSFLQHNKCECRPKKD", "binding result": "binds"}
{"binder": "62-8 (ligand) GQNHHEVVKFMDVYQRSYCHPREVCIDVGKEFGVATNTFFKPPCVSVYRCGGCCNSEGLQCMNTSTSYLSKTLFEIKPHQGQHIGEMSFANHTSCRCMSKLD", "binding result": "binds"}
{"binder": "11-15 (ligand) GQNHHEVVKFMDVYQRSYCHPIETLVDIFQEYPDEIEYIFKPSCVPLMRCGGCCNSEGLQCVPTEESNITMQIMRITVPLSQGPKPVTISFANHTSCRCMSKLD", "binding result": "binds"}
